- TEST: Multiple ascending dose study, plasma pharmacokinetics of Compound (1) and GHB
- Format: in vivo, human
- TEST_SETTINGS: human, plasma, oral, 6 g/day, Cohort 8 (6.0 g/day divided into equal 2 doses), Dosing Day 4; read-out: Compound (1) plasma T1/2, Mean (converted)
- Procedure: The plasma concentrations of Compound (1) and GHB in plasma in healthy human subjects were measured using liquid chromatography tandem mass-spectroscopy and evaluated using PHOENIX™ WINNONLIN® version 8.1 (Pharsight Corporation, USA) and MICROSOFT® EXCEL® (Microsoft Corporation, USA). All randomized subjects who received Compound (1), with available pharmacokinetic (PK) data and without relevant deviations interfering with the PK evaluations, were included. […]
QUANTITY: half-life (min)

GIVEN_SMILES | OBSERVED
CC(C)[C@H](N)C(=O)OCCCC(=O)O | 31.8

* * *

- TEST: Single ascending dose study, plasma pharmacokinetics of Compound (1) and GHB
- Format: in vivo, human
- TEST_SETTINGS: human, plasma, po, 1.5 g, Cohort 3 (1.50 g) single oral dose, fasted; read-out: Compound (1) plasma AUC0-tlast, Median
QUANTITY: AUC(0-t) (ng·h/mL)

COMPOUND | SCALE_UNIT | OBSERVED
CC(C)[C@H](N)C(=O)OCCCC(=O)O [Compound (1), 4-((L-valyl)oxy)butanoic acid] | ng·h/mL | 2960

* * *

- TEST: Multiple ascending dose study, plasma pharmacokinetics of Compound (1) and GHB
- Type: in vivo, human
- TEST_SETTINGS: human, plasma, oral, 6 g/day, Cohort 10 (6.0 g/day in a single dose), Dosing Day 10; read-out: Compound (1) plasma T1/2, Mean (converted)

GIVEN_SMILES | half-life, min
CC(C)[C@H](N)C(=O)OCCCC(=O)O | 21.6

* * *

- TEST: Multiple ascending dose study, plasma pharmacokinetics of Compound (1) and GHB
- Assay type: in vivo, human
- TEST_SETTINGS: human, plasma, oral, 6 g/day, Cohort 8 (6.0 g/day divided into equal 2 doses), Dosing Day 10; read-out: Compound (1) plasma AUC0-tlast, Mean

GIVEN_SMILES | AUC(0-t)
CC(C)[C@H](N)C(=O)OCCCC(=O)O | 14800 ng·h/mL

* * *

- TEST: Multiple ascending dose study, plasma pharmacokinetics of Compound (1) and GHB
- Format: in vivo, human
- TEST_SETTINGS: human, plasma, oral, 4.5 g/day, Cohort 9 (4.5 g/day in a single dose), Dosing Day 10; read-out: Compound (1) plasma AUC0-tlast, Median
QUANTITY: AUC(0-t)

GIVEN_SMILES | OBSERVED
CC(C)[C@H](N)C(=O)OCCCC(=O)O | 10100 ng·h/mL

Data provenance: patent US11896573B2
